Entries and their measured inhibition follow.
# ASSAY PROCEDURE: inhibitors of TWEAK-Fn14 signaling, primary screen, luciferase reporter cells, uHTS (AID 1159606)
# COND: TWEAK-stimulated Fn14 reporter cells, luciferase luminescence, 8 h; at 10 µM; stronger effect = higher value
About 7,300 (2%) of roughly 360,000 compounds were called active. For the sample, actives were picked, then their nearest neighbours and some compounds at random.
Hi! Could you send only the number? It should be in %, unit omitted.

Recorded inhibition, per entry:
| COMPOUND | UNIT INFO | inhibition |
| --- | --- | --- |
| O=C(Nc1sc2c(c1-c1nc3ccccc3[nH]1)CCCC2)C1CC1 | % | -8.49 |
| CSc1nnc(SCc2nc3sc(C(=O)O)c(C)c3c(=O)[nH]2)s1 | % | 15.4 |
| CCN1CCN(C(=O)C2(NC(=O)Nc3cccc(F)c3)CCCCC2)CC1 | % | 6.11 |
| COc1ccc(C2=Nc3cc(C)ccc3OC2)cc1 | % | 27.9 |
| Cc1nc2cc(NCc3cccs3)ccc2n1C | % | -6.1 |
| N/C(=N\OC(=O)Nc1ccccc1)c1ccno1 | % | -22.1 |
| CC/C(O)=C1\C(=O)CC(C)(C)CC1=NCCc1nc2ccccc2[nH]1 | % | 4.19 |
| O=C(COc1ccc(-n2cnnn2)cc1)Nc1ccccc1Cl | % | -14.3 |

## Input Hello, please tell me recorded inhibition for this one: COc1ccc(-c2cn3ccc(C)cc3n2)cc1
## Output 81.6

## Input Hello, please tell me recorded inhibition for this one: COc1ccc(CCNC(=O)CCC(=O)NC2CCCCC2)cc1OC
## Output 4.09

## Input Hello, please tell me recorded inhibition for this one: O=C(Nc1ccc(S(=O)(=O)N2CCCCCC2)cc1)c1c(F)cccc1F
## Output 2.17

## Input Hello, please tell me recorded inhibition for this one: CCCCCc1c(-c2cccc(Br)c2)ncn1CCc1ccccc1OC
## Output -2.04

## Input Hello, please tell me recorded inhibition for this one: C=CCN(C(=O)Nc1ccc2c(c1)nc(C)n2C)c1ccccc1
## Output -7.06

## Input Hello, please tell me recorded inhibition for this one: Cc1cc(C(=O)COC(=O)CNC(=O)c2ccc(F)cc2)c(C)n1Cc1ccco1
## Output 71.8

====

# ASSAY PROCEDURE: inhibitors of TWEAK-Fn14 signaling, primary screen, luciferase reporter cells, uHTS (AID 1159606)
# COND: TWEAK-stimulated Fn14 reporter cells, luciferase luminescence, 8 h; at 10 µM; stronger effect = higher value
The whole screen tested about 360,000 compounds, of which about 7,300 (2%) were called active. The list comes from a sample in which actives are over-represented; it also holds close analogues and randomly drawn compounds.
OBSERVED PROPERTY: inhibition (%)
Hi! Could you send only the number? It should be in %, unit omitted.

## Input Hello, please tell me recorded inhibition for this one: COc1cc(C(=O)OCC(=O)N(CC(C)C)C2CCS(=O)(=O)C2)ccc1OCC(C)C (stereo not given)
## Output -5.97

## Input Hello, please tell me recorded inhibition for this one: Cc1ccc(S(=O)(=O)Nc2ccccc2CNc2c(C)n(C)n(-c3ccccc3)c2=O)cc1
## Output 12.4

## Input Hello, please tell me recorded inhibition for this one: O=C(Nc1cc(C(F)(F)F)ccc1Cl)c1cc2nc3c(c(C(F)(F)F)n2n1)CCCC3
## Output 76.7

## Input Hello, please tell me recorded inhibition for this one: O=C(NC1CC1)c1cccc(Br)c1
## Output 84.3

## Input Hello, please tell me recorded inhibition for this one: CC(=O)N1CCN(S(=O)(=O)c2cccc(C(=O)NC3CCC(C)CC3)c2)CC1 (stereo not given)
## Output 3.88
